systemUnderTest: RSV F protein of subtype B strain 18537, on virus (respiratory syncytial virus subtype B …, UniProt P13843 26-574)
Sequence (P13843 26-574): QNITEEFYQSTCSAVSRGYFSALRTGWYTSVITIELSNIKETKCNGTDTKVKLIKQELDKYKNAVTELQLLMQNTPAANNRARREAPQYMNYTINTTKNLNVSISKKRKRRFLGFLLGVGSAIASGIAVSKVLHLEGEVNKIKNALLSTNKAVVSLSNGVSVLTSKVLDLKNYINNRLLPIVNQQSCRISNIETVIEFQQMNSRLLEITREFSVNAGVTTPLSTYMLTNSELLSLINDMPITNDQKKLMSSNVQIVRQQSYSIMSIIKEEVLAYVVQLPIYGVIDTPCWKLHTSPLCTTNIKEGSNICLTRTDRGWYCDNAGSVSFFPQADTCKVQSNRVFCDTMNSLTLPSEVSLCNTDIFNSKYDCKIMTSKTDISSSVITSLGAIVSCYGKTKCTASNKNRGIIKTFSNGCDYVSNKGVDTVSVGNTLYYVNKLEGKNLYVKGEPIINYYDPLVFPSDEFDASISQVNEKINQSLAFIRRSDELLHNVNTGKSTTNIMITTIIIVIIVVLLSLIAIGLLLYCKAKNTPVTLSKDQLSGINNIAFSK
assayExplanation: cell-based or functional assay

{"columns": ["binder", "unitSymbol", "Neut IC50 (ug/ml) subtype B"],
 "data": [
  ["ADI-15614 (antibody, V domains shown, IgG) VH: EVQLLESGGGLVKPGGSLRLSCAASGFTISGYNMFWVRQPPGKGLEWVSSITAGSSYLNYADSVKGRFIVSRDNAKNSLYLQMNSLRAEDTAVYFCARAPLLPAMMDLWGQGTTVTVSS VL: QSVLTQPPSVSGAPGQRVTISCTGSSSNIGAGYDVHWYQQLPGTAPKLLIYTNNNRPSGVPDRFSGSKSGTSASLAITGLQAEDEADYYCQSYDRSLNGYVFGTGTKLTVL", "µg/mL", 0.059],
  ["ADI-15613 (antibody, V domains shown) VH: EVQLVESGAEVKKPGSSVKVSCKVSGGTFSTYGISWIQQAPGQGLEWVGGIIPMFGTANYAQRFQGRVTLTADEGTNTAYMELNNLRSEDTAMYYCARDRGNNGRYYAMDVWGQGTTVTVSS VL: DIVLTQTPATLSLSPGERATLSCRASQSVTTYLAWYQQKPGQAPRLLIYDTSNRATGIPARFSGSGSGTDFTLTISSLEPEDFAVYYCQQRNNWPPTFGQGTRLEIK", "µg/mL", 3.04]
]}
